Reference source: the supplement of paper PMC13380429

- Test system: HepG2
- Experimental Protocol: cell viability relative to DMSO; higher = less toxic
- Experimental Context: 72 h; 1000 nM
Reported Metric: cell viability (%)
Lab book: enter the figure in %, no units written.

Worked cases, answers included:
* CCS(=O)(=O)N1CCN(c2ccc(Nc3ncc(C(N)=O)c(NC4CC4)n3)cc2)CC1 | 76.3
* CNC(=O)Nc1ccc(-c2nc(N3CC4CCC(C3)O4)c3cnn(C4CCC5(CC4)OCCO5)c3n2)cc1 | 31.2
* CC(C)Oc1ccc(-c2nc(-c3cccc4c3CC[C@H]4NCCC(=O)O)no2)cc1C#N [RP-001] | 104
* C/C(=N\NC(=O)C(NC(=O)c1ccccc1)c1n[nH]c(=O)c2ccccc12)c1cccc(Br)c1 (stereo unspecified) | 95.4
* NC(=O)C(c1ccccc1)(c1ccc(F)cc1)c1ccc(F)cc1 [senicapoc] | 95.5

# cell viability (molecule: CC(=O)Nc1ccc(C(=O)O)cc1 [acedoben] ) is 96.8

The value of cell viability measured for the molecule O=C(O)[C@H]1CN(CCCP(=O)(O)O)CCN1 [CPP] turned out to be 103

The recorded cell viability for CC(C)(Oc1ccc(C(=O)c2ccc(Cl)cc2)cc1)C(=O)O [fenofibric-acid] is 94.9

Measured cell viability of Nc1cccc2c(=O)[nH][nH]c(=O)c12 [monosodium-alpha-luminol] : 89.8

// sample O=C(O)C1(C(=O)O)CCC1.[NH2-].[NH2-].[Pt+2] [carboplatin] , its cell viability was 90.7

Entry N#C/C(=C\c1ccc(O)c(O)c1)C(=O)NCc1ccccc1 [AG-490] — recorded cell viability = 95

Data point: CN(C)CCCN1c2ccccc2Sc2ccc(Cl)cc21 [chlorpromazine] ; cell viability = 91.3

// cell viability value for O=C(O)c1ccccc1C(=O)Nc1ccc(-c2ccccc2)cc1 [kartogenin] : 97.3

Recorded result, CC(C)n1nc(C#Cc2ccccc2)c2c(N)ncnc21 [SPP86] , cell viability: 60.9

Record CC(C)N(CC[C@H](c1ccccc1)c1cc(CO)ccc1O)C(C)C [5-hydroxymethyl-tolterodine] . Reported cell viability: 96.5

CCCCCCCCCCCCCCCCCCN(CCCCCCCCCCCCCCCCCC)CCCN(CCO)CCO [avridine] yielded cell viability of 106
